Test system: cancer cell lines
Assay: Cancer cell proliferation activity (CellTiterGlo, 72 h)
Type: cell-based
Details: 72 h, J82 (bladder), 72 h; read-out: IC50 cell proliferation
Readings of pIC50 for the listed compounds
# pIC50 = -log10(concentration in molar units)

Observe how each entry below is paired with its result.
>>> print(df.to_string())
                         compound_structure  measurement_label  observed_measurement
0  Nc1nc(F)nc2c1ncn2[C@@H]1O[C@H](CO)[C@@H](O)[C@@H]1O              pIC50                  4.71
1  C[C@]1(CO)O[C@@H](n2cnc3c(N)nc(F)nc32)[C@H](O)[C@@H]1O              pIC50                  7.10
2  CCC[C@]1(CO)O[C@@H](n2cnc3c(N)nc(F)nc32)[C@H](O)[C@@H]1O              pIC50                  6.80
3  Nc1nc(F)nc2c1ncn2[C@H]1C[C@H](O)[C@@H](CO)O1              pIC50                  5.74
4  Nc1nc(F)nc2c1ncn2[C@@H]1O[C@H](CO)[C@@H](O)[C@H]1O              pIC50                  7.00
5  Nc1nc(=O)n([C@H]2C[C@H](O)[C@@H](CO)O2)cc1F              pIC50                  8.30
6  Nc1nc(=O)n([C@H]2C[C@H](O)[C@](CO)(CF)O2)cc1F              pIC50                  6.67
7  Nc1ccn([C@H]2C[C@H](O)[C@](CO)(CF)O2)c(=O)n1              pIC50                  6.12

Name the recorded pIC50 of the item C[C@]1(CO)O[C@@H](n2ccc(N)nc2=O)[C@@H](O)[C@@H]1O in your answer.
5.26

====

System: cancer cell lines
Experiment: Cancer cell proliferation activity (CellTiterGlo, 72 h)
Assay type: cell-based
Details: Homo sapiens, 786-0, 72 h, 786O (kidney), 72 h; read-out: IC50 cell proliferation
pIC50: −log10 of the molar value.
Outcome label depends on pIC50 relative to 7: at/above gives y, below gives n.

Some solved entries appear below for comparison.
>>> df
                         compound_structure  class
0  Nc1nc(F)nc2c1ncn2[C@@H]1O[C@H](CO)[C@@H](O)[C@H]1O      y
1  C[C@]1(CO)O[C@@H](n2ccc(N)nc2=O)C(F)(F)[C@@H]1O      n
2  Nc1nc(=O)n([C@H]2C[C@H](O)[C@@H](CO)O2)cc1F      y
3  Nc1nc(F)nc2c1ncn2[C@@H]1O[C@H](CO)[C@@H](O)[C@@H]1O      n
4  Nc1nc(F)nc2c1ncn2[C@H]1C[C@H](O)[C@@H](CO)O1      n

For this compound, is measured pIC50 7 or higher? C[C@]1(CO)O[C@@H](n2ccc(N)nc2=O)[C@@H](O)[C@@H]1O
n

For this compound, is measured pIC50 7 or higher? Nc1nc(=O)n([C@H]2C[C@H](O)[C@](CO)(CF)O2)cc1F
n
